MEASURED ON: Bcl-xL protein (Homo sapiens, UniProt Q07817, N197C)
Construct: (2-197)[N197C]; His-His (two His8 stretches joined by a Gly/Ala/Ser/Thr linker)
Sequence (Q07817 2-197 N197C): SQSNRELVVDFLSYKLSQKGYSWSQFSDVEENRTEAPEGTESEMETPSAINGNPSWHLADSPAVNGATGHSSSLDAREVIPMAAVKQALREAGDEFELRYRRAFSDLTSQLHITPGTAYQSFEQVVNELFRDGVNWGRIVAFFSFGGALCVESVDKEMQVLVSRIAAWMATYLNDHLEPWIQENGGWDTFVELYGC
TEST: Fluorescence quenching assay (PUMA peptide displacement)
ASSAY CONDITIONS: 1 nM protein, 400 nM peptide, 2 hours at 23° C.; KI determined from IC50
PROPERTY MEASURED: Ki (pM)
A number alone suffices; assume pM.

Solved entries:
- COMPOUND: "C/C(=C\\c1sc(N(C)c2cc(C)c(Nc3nc4ccccc4s3)nn2)nc1C(=O)O)COc1ccc(C#CCN(C)C)cc1F"
  UNIT SPEC: "pM"
  MEASURED RESULT: 20
- COMPOUND: "Cc1cc(N(C)c2nc(C(=O)O)c(CCCOc3ccc(C#CC(C)N4CCOCC4)cc3F)s2)nnc1Nc1nc2ccccc2s1 (single isomer, unassigned) [Example 206]"
  UNIT SPEC: "pM"
  MEASURED RESULT: 9
- COMPOUND: "CNCC#Cc1ccc(OCCCc2sc(N(C)c3cc(C(F)(F)F)c(Nc4nc5ccccc5s4)nn3)nc2C(=O)O)c(F)c1"
  UNIT SPEC: "pM"
  MEASURED RESULT: 23
- COMPOUND: "Cc1cc(N(CCCCCNCCN2CCOCC2)c2nc(C(=O)O)c(CCCOc3ccc(C#CCN(C)C)cc3F)s2)nnc1Nc1nc2ccccc2s1"
  UNIT SPEC: "pM"
  MEASURED RESULT: 2.6
- COMPOUND: "CNCC#Cc1ccc(OCCCc2sc(N(CCCCCO)c3cc(C)c(Nc4nc5ccccc5s4)nn3)nc2C(=O)O)c(F)c1"
  UNIT SPEC: "pM"
  MEASURED RESULT: 28

Here is the next item to consider.
Given the compound Cc1cc(N(C)c2ccc(-c3cnn(CC45CC6(C)CC(C)(C4)CC(OCCN(C)C)(C6)C5)c3C)c(C(=O)O)n2)nnc1Nc1nc2ccccc2s1 , what is its reported Ki?
2.2
